assay_method_text: Solvent solubility assessment by visual inspection
Format: physicochemical
condition_label: aqueous buffer, thermodynamic from solid; 1N HCl; read-out: Solubility (soluble at tested concentration)
readout_label: Solubility

{"molecule": "CCOC(=O)Nc1ccc(NCc2ccc(F)cc2)cc1NC(=O)OC(C)OC(=O)C(C)C (stereo not shown)", "observed_value": "> 1000 µg/mL"}

* * *

assay_method_text: Solvent solubility assessment by visual inspection
Assay type: physicochemical
condition_label: 0.1 N NaCl, saline or isotonic, thermodynamic from solid; read-out: Solubility (freely soluble at tested concentration)
The entries below come with measured Solubility values attached.

{"compound": "CCOC(=O)Nc1ccc(NCc2ccc(F)cc2)cc1NC(=O)OC(C)OC(=O)C(C)C (centres unmarked)", "Solubility": "< 1000 µg/mL"}
{"compound": "CCOC(=O)Nc1ccc(NCc2ccc(F)cc2)cc1NC(=O)[C@@H](N)CCCCN", "Solubility": "> 10000 µg/mL"}
